system: L1210 leukemia ip in BDF1 mice, survival T/C; assay: NCI In Vivo Anticancer Drug Screen. Data for tumor model L1210 Leukemia (intraperitoneal) in B6D2F1 (BDF1) mice; conditions: endpoint: mean survival time; dose: 400.0 mg/kg/injection; schedule: Q04DX002 (ip); vehicle: saline; higher = longer survival
Inconclusive results and toxic doses are left out.
Attribute measured: T/C

Could you share which T/C value was measured for CC(C)(CS(C)(=O)=O)NC(=O)NCCCl ?
103 % of control

Ok, now CC(=O)OCCOc1cccc(C)c1
107 % of control

Ok, now N#CCCC(=O)c1cccnc1
93 % of control

Ok, now OC(c1cccc2ccccc12)c1c2ccccc2cc2ccccc12 (stereo not drawn)
97 % of control

Ok, now [NH-]C(CCC(N)=O)C(=O)O.[NH-]C(CCC(N)=O)C(=O)O.[Pd+2] (stereo not drawn)
102 % of control

Ok, now CCC(CS(=O)(=O)O)[N+](=O)[O-] (stereo not drawn)
107 % of control

Ok, now CCOC(=O)C(=O)O
97 % of control

Ok, now COC(=O)c1ccc(O)cc1
100 % of control

* * *

Record form. Attribute: T/C. Fill in for each entry.
tested on: L1210 leukemia ip in BDF1 mice, survival T/C; assay: NCI In Vivo Anticancer Drug Screen. Data for tumor model L1210 Leukemia (intraperitoneal) in B6D2F1 (BDF1) mice; details: endpoint: mean survival time; dose: 200.0 mg/kg/injection; schedule: Q04DX002 (ip); vehicle: Klucel (hydroxypropylcellulose) (HPC); higher = longer survival
Toxic doses and inconclusive results are not listed.

Could you share which T/C value was measured for COc1cc2c[n+](C)c3c4cc5c(cc4ccc3c2cc1OC)OCO5 ?
111 % of control

Ok, now S=C(Sc1nc2ccccc2s1)Sc1nc2ccccc2s1
94 % of control

Ok, now C[C@@]1(C(=O)O)CC2C=CC1C2 (stereo partly specified)
96 % of control

Ok, now CC(O)(c1ccncc1)c1cc2ccccc2n1S(=O)(=O)c1ccccc1 (stereo unspecified)
87 % of control

Ok, now CC1(C)CC(=O)C2=C(C1)Nc1ccccc1NC2c1ccc([N+](=O)[O-])cc1 (stereo unspecified)
109 % of control

Ok, now COc1ccc(/C=C2\N=C(c3cccc([N+](=O)[O-])c3)OC2=O)cc1OC
110 % of control

Ok, now NC(=O)NC(=O)NC(N)=O
102 % of control

Ok, now O=C(COc1ccc(Br)cc1)Nc1ccc(Cl)cc1
92 % of control

Ok, now CC(C)OC(=O)N1CCN(C(=O)OC(C)C)CC1
93 % of control

Ok, now COc1c(-c2cc(C)nc(NC#N)n2)c(O)cc2occc12
95 % of control

Ok, now ClCCN(CCCl)c1ccc(C=Nc2cc(Cl)ccc2-n2ccnc2)c(Cl)c1
95 % of control

Ok, now O=C(O)COc1cc(Cl)ccn1
93 % of control

Ok, now C[N+](C)(C)C12CCC(CC1)C1([N+](C)(C)C)CCC2CC1
113 % of control

Ok, now CC(=O)OCCc1cccc(C)c1
115 % of control

Ok, now NC(CSS(=O)(=O)O)=NCc1ccccn1
101 % of control

Ok, now O=C(Cc1ccccc1)Nc1ccc(Cl)c(Cl)c1
100 % of control

Ok, now O=[N+]([O-])c1ccc(/C=C/c2ccc(OCc3ccccc3)cc2)cc1Cl
96 % of control

Ok, now O=C1OC(c2cccc(Cl)c2)=N/C1=C\c1cc(Br)cc(Br)c1O
100 % of control

Ok, now NC(=O)Nc1ccccc1-c1ccccc1
109 % of control

Ok, now CNc1ncnc(NC)c1[N+](=O)[O-]
90 % of control

Ok, now O=c1ccnc(-c2ccccc2)[nH]1
119 % of control

Ok, now COc1ccc(-n2cccc2/C=N\O)cc1OC
100 % of control

Ok, now NC(=S)N/N=C/c1c(Cl)n(-c2ccccc2)c2ccccc12
93 % of control

Ok, now CC(C)OC(=O)Nc1cccc(Br)c1
106 % of control

Ok, now C=CCOc1c(Br)cc(Br)cc1Br
89 % of control

Ok, now CC12CCC3c4cc(N)c(O)cc4CCC3C1CCC2=O (stereo unspecified)
99 % of control
